Vd reference
test: pharmacokinetic evaluation in rats after oral and intravenous administration; format: in vivo; conditions: Sprague-Dawley, rat, plasma; male SD rats; oral 10.0 mg/kg, intravenous 1.0 mg/kg; route and unit inferred; read-out: Apparent volume of distribution
Lab book: enter the figure in L/kg, no units written.

Compound | Measured property | Unit | Measured value
CSc1cccc2c(C(C)(C)NC(=O)[C@H]3[C@@H]4CNC[C@@H]43)nn(C)c12 [Compound 14] | Vd | L/kg | 7.09

// next item, Vd requested
Prompt: Entry CSc1cccn2c(C(C)(C)NC(=O)[C@H]3[C@@H]4CNC[C@@H]43)ncc12 [Compound 1a] : reported Vd = ?
Completion: 5.12

====

Consider the following Ki values measured on human SSTR4 (Homo sapiens, UniProt P31391).
Sequence (P31391 whole entry): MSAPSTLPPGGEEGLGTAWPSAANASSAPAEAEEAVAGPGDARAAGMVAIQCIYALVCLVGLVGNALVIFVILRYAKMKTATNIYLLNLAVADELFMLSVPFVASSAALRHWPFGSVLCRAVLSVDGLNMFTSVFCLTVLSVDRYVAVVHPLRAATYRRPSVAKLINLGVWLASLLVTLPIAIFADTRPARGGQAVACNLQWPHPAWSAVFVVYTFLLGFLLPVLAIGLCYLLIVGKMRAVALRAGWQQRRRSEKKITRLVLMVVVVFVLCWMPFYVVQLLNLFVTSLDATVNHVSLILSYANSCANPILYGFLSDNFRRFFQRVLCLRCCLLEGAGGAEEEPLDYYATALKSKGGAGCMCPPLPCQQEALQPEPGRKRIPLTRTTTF
Lab book: enter the figure in nM, no units written.

Smiles input | Target entity | Measured property | Measured value
CSc1cccc2c(C(C)(C)NC(=O)[C@H]3[C@@H]4CNC[C@@H]43)nn(C)c12 | human SSTR4 (Homo sapiens, UniProt P31391) | Ki | 0.51

// next item, Ki requested
Prompt: Given the entry `CSc1cccn2c(C(C)(C)NC(=O)[C@H]3[C@@H]4CNC[C@@H]43)ncc12` , what Ki was observed with human SSTR4 (Homo sapiens, UniProt P31391)?
Completion: 5.52

====

test: metabolic stability in pooled human liver microsomes; conditions: microsomes, pH 7.4
Measured property: half-life at 1 µM

Prompt: Entry `CSc1cccn2c(C(C)(C)NC(=O)[C@H]3[C@@H]4CNC[C@@H]43)ncc12.Cl` : reported half-life at 1 µM = ?
Completion: > 3.11 h

====

clearance reference
assay: pharmacokinetic evaluation in rats after oral and intravenous administration; type: in vivo; settings: Sprague-Dawley, rat, plasma; male SD rats; oral 10.0 mg/kg, intravenous 1.0 mg/kg; route and unit inferred; read-out: Clearance rate
Lab book: enter the figure in mL/min/kg, no units written.

Smiles input | Unit | clearance
CSc1cccn2c(C(C)(C)NC(=O)[C@H]3[C@@H]4CNC[C@@H]43)ncc12 | mL/min/kg | 53

// next item, clearance requested
Prompt: Entry `CSc1cccc2c(C(C)(C)NC(=O)[C@H]3[C@@H]4CNC[C@@H]43)nn(C)c12` : reported clearance = ?
Completion: 48.7

====

Biological target: human SSTR2 (Homo sapiens)
Construct: expressed in transfected cells; host or cells: CHO-K1 (membrane homogenates)
Sequence (P30874 whole entry): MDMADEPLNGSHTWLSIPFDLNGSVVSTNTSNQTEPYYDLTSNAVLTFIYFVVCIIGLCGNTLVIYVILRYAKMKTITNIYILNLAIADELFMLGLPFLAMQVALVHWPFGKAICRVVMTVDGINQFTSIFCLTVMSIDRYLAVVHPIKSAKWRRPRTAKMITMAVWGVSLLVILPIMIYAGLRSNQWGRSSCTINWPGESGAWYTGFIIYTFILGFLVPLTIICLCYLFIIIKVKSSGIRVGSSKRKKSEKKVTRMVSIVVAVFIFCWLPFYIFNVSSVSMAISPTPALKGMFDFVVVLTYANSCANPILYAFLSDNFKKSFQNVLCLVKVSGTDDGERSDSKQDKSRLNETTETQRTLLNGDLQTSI
Experiment: biochemical
Conditions: 25° C., 2 hours, Cheng-Prusoff; read-out: Binding Ki (nM) SSTR2
Method: Cell membranes were then filtered and washed, and protein-bound radioactivity was measured with a suitable instrument. The Ki values of corresponding targets were calculated using a Cheng-Prusoff formula.
Ki reference

Before answering, review these 2 worked examples.
Compound | Ki
CSc1cccn2c(C(C)(C)NC(=O)[C@H]3[C@@H]4CNC[C@@H]43)ncc12 | > 5310 nM
CSc1cccc2c(C(C)(C)NC(=O)[C@H]3[C@@H]4CNC[C@@H]43)nn(C)c12 | > 5310 nM

// next item, Ki requested
Prompt: Entry Cc1cccc2c(C(C)(C)NC(=O)[C@H]3[C@@H]4CNC[C@@H]43)nn(C)c12 [Control Compound A, reference compound] : reported Ki = ?
Completion: > 5310 nM

====

half-life at 1 µM reference
test: metabolic stability in male rat liver microsomes; conditions: rat liver microsomes, pH 7.4

Compound | half-life at 1 µM
CSc1cccc2c(C(C)(C)NC(=O)[C@H]3[C@@H]4CNC[C@@H]43)n[nH]c12 [Compound 15] | > 3.11 h
CSc1nc(C(C)(C)NC(=O)[C@H]2[C@@H]3CNC[C@@H]32)n2cccc(C)c12 [Compound 17] | > 3.11 h

// next item, half-life at 1 µM requested
Prompt: Entry CSc1cccc2c(C(C)(C)NC(=O)[C@H]3[C@@H]4CNC[C@@H]43)nn(C)c12 [Compound 14] : reported half-life at 1 µM = ?
Completion: > 3.11 h

====

EC50 reference
target: human SSTR4 (Homo sapiens, UniProt P31391); construct: expressed in transfected cells; test: cell-based human SSTR4 cAMP assay (agonist activity); conditions: SSTR4, EC50 (nM), Flp-In-CHO-SSTR4 stable pool, Forskolin-stimulated cAMP
Lab book: enter the figure in nM, no units written.

Compound | Measured property | Unit | Measured value
CSc1cccc2c(C(C)(C)NC(=O)[C@H]3[C@@H]4CNC[C@@H]43)nn(C)c12 | EC50 | nM | 0.057
CC(C)(NC(=O)[C@H]1[C@@H]2CNC[C@@H]21)c1ncc2c(SCC3CCCC3)cccn12 | EC50 | nM | 7.58
CC(C)(NC(=O)[C@H]1[C@@H]2CNC[C@@H]21)c1ncc2c(SC3CCCC3)cccn12 | EC50 | nM | 10.5
CC(C)Sc1cccn2c(C(C)(C)NC(=O)[C@H]3[C@@H]4CNC[C@@H]43)ncc12 | EC50 | nM | 3.29
CC(C)(NC(=O)[C@H]1[C@@H]2CNC[C@@H]21)c1ncc2c(SCC3CCC3)cccn12 | EC50 | nM | 2.47

Prompt: Entry `CC(C)(NC(=O)[C@H]1[C@@H]2CNC[C@@H]21)c1ncc2c(SCc3ccccc3)cccn12` : reported EC50 = ?
Completion: 3.42

Prompt: Entry `CSc1ccccc1C(C)(C)NC(=O)[C@H]1[C@@H]2CNC[C@@H]21` : reported EC50 = ?
Completion: 1.25

Prompt: Entry `CC(C)(NC(=O)[C@H]1[C@@H]2CNC[C@@H]21)c1ncc2c(SC3CCC3)cccn12` : reported EC50 = ?
Completion: 1.83

Prompt: Entry `CC(C)(NC(=O)[C@H]1[C@@H]2CNC[C@@H]21)c1ncc2c(Sc3nccs3)cccn12` : reported EC50 = ?
Completion: 36.7

Prompt: Entry CSc1cccn2c(C(C)(C)NC(=O)[C@H]3[C@@H]4CNC[C@@H]43)ncc12.Cl [Compound 1, Hydrochloride] : reported EC50 = ?
Completion: 0.15

Prompt: Entry CSc1cccn2c(C(C)(C)NC(=O)C3C4CNCC43C)ncc12 (single isomer, unassigned) [Compound 5-P1] : reported EC50 = ?
Completion: 1.25

Prompt: Entry `CSc1cccc2c(C(C)(C)NC(=O)[C@H]3[C@@H]4CNC[C@@H]43)n[nH]c12` : reported EC50 = ?
Completion: 0.046

Prompt: Entry `CC(C)CSc1cccn2c(C(C)(C)NC(=O)[C@H]3[C@@H]4CNC[C@@H]43)ncc12` : reported EC50 = ?
Completion: 7.89

====

molecular target: human SSTR4 (Homo sapiens); construct: expressed in transfected cells; assay: cell-based human SSTR4 cAMP assay (agonist activity); settings: SSTR4, EC50 (nM), Flp-In-CHO-SSTR4 stable pool, Forskolin-stimulated cAMP
Counter-ions that a name gives are not always drawn.
Measured property: EC50 (nM)
Lab book: enter the figure in nM, no units written.

Before answering, review these 4 worked examples.
Compound | EC50 (nM)
CC(C)(NC(=O)[C@H]1[C@@H]2CNC[C@@H]21)c1ncc2c(SCC3CC3)cccn12 | 0.5
CC(C)(CSc1ccccc1C(F)(F)F)NC(=O)[C@H]1[C@@H]2CNC[C@@H]21 | 6.77
CCSc1cccn2c(C(C)(C)NC(=O)[C@H]3[C@@H]4CNC[C@@H]43)ncc12 [Compound 6, Hydrochloride] | 0.73
CSc1cccn2c(C(C)(C)NC(=O)C3C4CNCC43C)ncc12 (single isomer, unassigned) [Compound 5-P2] | 0.41

// next item, EC50 requested
Prompt: Entry `CSc1nc(C(C)(C)NC(=O)[C@H]2[C@@H]3CNC[C@@H]32)n2cccc(C)c12` : reported EC50 = ?
Completion: 0.068
